test system: T-47D breast; experiment: NCI tumour cell line growth inhibition, 48 h
READOUT_KIND: TGI

Query: # TGI lookup, item COc1ccc(-c2nsc3c2NC(=O)CC3c2ccc3c(c2)OCO3)cc1 (centres undefined)
Result: > 100 µM

Query: Next entry: `C=C1C(=O)O[C@H]2[C@H]1CC/C(CNS(=O)(=O)c1ccc3ccccc3c1)=C\CC[C@@]1(C)O[C@@H]21`
Result: 4.64 µM

Query: Next entry: `COc1cc2c(cc1OCCCOC1=C=C=C(c3ccc4c(c3)c3cc(-c5ccc(OCCCOc6cc7c(cc6OC)C(=O)N6CCC[C@H]6C=N7)cc5)ccc3n4S(=O)(=O)c3ccc(C)cc3)C=C1)N=C[C@@H]1CCCN1C2=O`
Result: 19.1 µM

Query: Next entry: `CO/C(=N\N=C\c1ccc(Cl)cc1Cl)c1ccncc1`
Result: > 10 µM

====

tested on: HOP-92 NSCLC; assay: NCI tumour cell line growth inhibition, 48 h
Hi there, I'd appreciate the recorded log10 TGI for every entry that follows.
On a log10 scale: recorded TGI, unit µM.

Query: # log10 TGI lookup, item `CCN(CC)C(=S)N/N=C/c1ccccn1`
Result: 0.39

Query: Next entry: `Nc1ccc(N=Nc2ccccc2)c(N)n1`
Result: 1.82

Query: Next entry: `Cc1nc2cncc(C#Cc3cncc(C(=O)Nc4ccc(CN5CCN(C)CC5)c(C(F)(F)F)c4)c3)c2nc1C`
Result: 0.05

Query: Next entry: `OCc1cccc(-c2ccc3ncc(-c4nc(NC5CC5)ncc4F)n3c2)c1`
Result: -0.05

Query: Next entry: `C=C1C(=O)O[C@H]2[C@H]1CC/C(CNS(=O)(=O)c1ccc3ccccc3c1)=C\CC[C@@]1(C)O[C@@H]21`
Result: 0.80

Query: Next entry: `CCOC(=O)c1cc2c(n1Cc1cc(OC)cc(OC)c1)-c1oncc1CCC2`
Result: 0.87

Query: Next entry: `Cn1c(-c2ccc[se]2)ccc1-c1ccc(CO)[se]1`
Result: 1.64

Query: Next entry: `COC(=O)c1ccc(CCc2cc(O)ccc2O)cc1`
Result: 1.42

Query: Next entry: `CNC(=O)c1c(NC(=O)c2cccc(C(F)(F)F)c2)sc2c1CCC(=O)C2`
Result: 0.41

Query: Next entry: `O=C1c2ccccc2-c2c1c1ccc([N+](=O)[O-])cc1c(=O)n2CCNCCCNCCn1c2c(c3ccc([N+](=O)[O-])cc3c1=O)C(=O)c1ccccc1-2`
Result: 0.62

Query: Next entry: `CN(C)CCOC(=O)c1ccc(N)cc1`
Result: 1.69

Query: Next entry: O=C1c2ccccc2C(=O)c2c1ccc1c2N=C(c2ccc(F)cc2)CC(c2ccc(Cl)c(Cl)c2)N1 (stereo unspecified)
Result: 1.95

====

Hi there, I'd appreciate the recorded TGI for every entry that follows.
tested on: OVCAR-3 ovarian; assay: NCI tumour cell line growth inhibition, 48 h

Query: # TGI lookup, item `Cc1cc(Nc2ccc(N=Nc3ccc(O)c4ncccc34)cc2)nc(C)n1`
Result: > 29.5 µM

Query: Next entry: O=C1CCCC2=C1C(c1ccc3c(c1)OCO3)Nc1ccc3ccccc3c12 (stereo unspecified)
Result: > 100 µM

Query: Next entry: CC1(C)CN(c2ccccc2)C(=O)C1OC(=O)[C@@]1(C)C[C@@H]2C=C[C@H]1C2 (stereo partly specified)
Result: > 100 µM

Query: Next entry: `O=c1[nH]c2ccccc2nc1/C=C(\O)C(F)F`
Result: > 100 µM

Query: Next entry: `CC(=N\O)/C(C)=N/O.CC(=N\O)/C(C)=N/O.CC(=N\O)/C(C)=N/O.CC(=N\O)/C(C)=N/O.[Cu].[Cu]`
Result: 43.7 µM

Query: Next entry: CCOC(=O)C1=C(C)C(C(=O)OC)/C(=C/c2cccc3cccnc23)C1=O (stereo unspecified)
Result: > 10 µM
